Attribution: patent US20140120095A1

biological target: T1, human DLL4 overexpressed on cells (human, UniProt Q9NR61 27-685); assay: FACS titration on HEK293-hDLL4 cells, MCF
T1 construct: full length human DLL4 on CHO or HEK293 cells; also called CHO-hDLL4; CHO-hDII4
Could you please report measured EC50 (read off the curve) for the items listed next?

Fill in: EC50 (read off the curve) of DLLBII56H08 (VHH) VHH: EVQLVESGGGLVQPGGSLRLSCAASGFTFDDYAIGWFRQAPGKEPEEISCISSSGGITYYADSVKGRFTISRDNAKNTVYLQMNSLKPEDTAVYYCATPGIAACRGIHYTGQGTQVTVSS is ___
~7 nM

Which measured EC50 (read off the curve) value corresponds to DLLBII115A05 (VHH, also called 115A5; DLLBII115A5) VHH: EVQLVESGGGLVQPGGSLRLSCAASGFTFGSYDMSWVRRSPGKGPEWVSSINSGGGSTYYADFVKGRFTISRDNAKNTLYLQMNSLKPEDTAVYYCAADRYIRARQGDYWGAYEYDYWGQGTQVTVSS ?
~20 nM

Find the recorded EC50 (read off the curve) belonging to DLLBII101G08 (VHH, also called 101G8; DLLBII101G8) VHH: EVQLVESGGGLVQAGGSLRLSCAASGRTFSSYAMAWFRQAPGKEREFVAAIRWSGGTAYYADSVQGRFTISRDNAKNTVYLQMNSLKPEDTAVYYCANRAADTRLGPYEYDYWGQGTQVTVSS and report it.
~30 nM

Query (binder): DLLBII56A09 (VHH, also called 56A9; DLLBII56A9) VHH: EVQLVESGGGLVQPGGSLRLSCAASGFTFDDYAIGWFRQAPGKEPEGISCISSSGGITYYADSVKGRFTTSRDNAKNTVYLQMNSLKPEDTAVYYCATPGIAACRGIHYTGQGTQVTVSS ; field requested: EC50 (read off the curve)
~4 nM
